Data origin, for the record: patent US20060040957A1

molecular target: MMP-9FL (full length Gelatinase B) (Homo sapiens, UniProt P14780); test: Thiopeptolide substrate hydrolysis assay, MMP-9FL; type: biochemical; conditions: HEPES pH 7.0, 22° C., read-out: IC50 (μM) Versus Certain MMPs: MMP-09 FL
Sequence (P14780 94-707, species assumed): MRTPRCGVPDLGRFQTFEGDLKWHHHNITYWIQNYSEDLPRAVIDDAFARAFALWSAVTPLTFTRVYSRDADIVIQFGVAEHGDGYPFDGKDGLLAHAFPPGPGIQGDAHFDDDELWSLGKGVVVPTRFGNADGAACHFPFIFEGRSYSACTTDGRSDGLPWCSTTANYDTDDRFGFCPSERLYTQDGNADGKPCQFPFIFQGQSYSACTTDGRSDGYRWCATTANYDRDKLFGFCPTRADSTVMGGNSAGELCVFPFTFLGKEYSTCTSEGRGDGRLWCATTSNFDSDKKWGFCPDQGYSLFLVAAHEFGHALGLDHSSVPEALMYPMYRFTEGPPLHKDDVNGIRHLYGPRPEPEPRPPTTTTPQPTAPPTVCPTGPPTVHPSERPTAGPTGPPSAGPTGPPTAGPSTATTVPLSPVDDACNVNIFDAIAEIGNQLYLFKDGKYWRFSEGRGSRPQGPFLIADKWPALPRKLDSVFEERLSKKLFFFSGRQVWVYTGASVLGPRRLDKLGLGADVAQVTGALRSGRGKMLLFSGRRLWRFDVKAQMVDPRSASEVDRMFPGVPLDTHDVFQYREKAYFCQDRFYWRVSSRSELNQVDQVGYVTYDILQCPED
Structures can show the parent of a compound that is named as a salt.
Readout Label: IC50

These solved cases illustrate the format of a correct answer.
Compound	Observed Result
O=C(NCc1ccccc1)c1cn2c(=O)n(C(=O)c3ccccc3)c(=O)cc2s1 [Example 11]	> 30 µM
CC#CCn1c(=O)c(C)c2sc(C(=O)NCc3ccc(F)cc3)cn2c1=O [Example 79]	> 100 µM

Reported IC50 for COc1ccc(CNC(=O)c2cn3c(=O)n(Cc4ccccc4)c(=O)c(C=O)c3s2)cc1 [Example 32] : what is it?
> 100 µM

And what about the compound Cc1c(=O)n(Cc2ccc(Cl)cc2)c(=O)n2cc(C(=O)NCc3ccncc3)sc12 [Example 72] ?
> 30 µM

And what about the compound Cc1c(=O)n(Cc2ccccc2)c(=O)n2cc(C(=O)NCc3ccncc3)sc12 [Example 36, hydrochloride] ?
> 30 µM

And what about the compound Cc1c(=O)n(Cc2ccccc2)c(=O)n2cc(C(=O)NCc3cccc(F)c3)sc12 [Example 10] ?
> 30 µM

And what about the compound Cc1c(=O)n(Cc2ccc(Br)cc2)c(=O)n2cc(C(=O)NCc3ccncc3)sc12 [Example 71, hydrochloride] ?
> 30 µM

And what about the compound COC(=O)c1ccc(Cn2c(=O)c(C)c3sc(C(=O)NCc4ccc(OC)cc4)cn3c2=O)cc1 [Example 103] ?
> 100 µM

And what about the compound O=C(NCc1ccncc1)C1Cn2c(cc(=O)n(Cc3ccccc3)c2=O)S1 (centres unmarked) [Example 22] ?
> 100 µM

----------
target: MMP-2FL (full length Gelatinase A) (Homo sapiens, UniProt P08253); experiment: Thiopeptolide substrate hydrolysis assay, MMP-2FL; format: biochemical; details: HEPES pH 7.0, 22° C., read-out: IC50 (μM) Versus Certain MMPs: MMP-02 FL
Sequence (P08253 110-660, species assumed): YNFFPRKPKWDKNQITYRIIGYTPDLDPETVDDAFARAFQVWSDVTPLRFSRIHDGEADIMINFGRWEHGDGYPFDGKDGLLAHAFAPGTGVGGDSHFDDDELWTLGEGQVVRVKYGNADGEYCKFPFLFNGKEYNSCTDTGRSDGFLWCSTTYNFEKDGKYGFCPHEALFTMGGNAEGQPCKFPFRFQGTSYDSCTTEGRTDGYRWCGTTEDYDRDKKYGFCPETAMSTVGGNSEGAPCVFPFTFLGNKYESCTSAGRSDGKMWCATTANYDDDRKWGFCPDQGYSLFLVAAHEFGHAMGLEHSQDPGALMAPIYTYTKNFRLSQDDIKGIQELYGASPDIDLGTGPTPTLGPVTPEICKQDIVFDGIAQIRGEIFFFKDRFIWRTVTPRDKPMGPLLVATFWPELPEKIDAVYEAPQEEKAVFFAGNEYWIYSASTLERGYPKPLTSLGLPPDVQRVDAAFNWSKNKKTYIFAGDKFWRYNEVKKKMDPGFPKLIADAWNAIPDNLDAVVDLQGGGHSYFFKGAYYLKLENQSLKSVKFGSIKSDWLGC
Counter-ions that a name gives are not always drawn.
Readout Label: IC50

These solved cases illustrate the format of a correct answer.
Compound	System Under Test	IC50
Cc1c(=O)n(Cc2ccccc2)c(=O)n2cc(C(=O)NCc3cccnc3)sc12	MMP-2FL (full length Gelatinase A) (Homo sapiens, UniProt P08253)	> 100 µM
Cc1c(=O)n(Cc2ccc3oc(=O)ccc3c2)c(=O)n2cc(C(=O)NCc3ccc(F)cc3)sc12	MMP-2FL (full length Gelatinase A) (Homo sapiens, UniProt P08253)	> 30 µM
Cc1c(=O)n(Cc2ccc(C(=O)OCCN(C)C)cc2)c(=O)n2cc(C(=O)NCc3ccncc3)sc12 [Example 63, dihydrochloride]	MMP-2FL (full length Gelatinase A) (Homo sapiens, UniProt P08253)	> 100 µM
Cc1c(=O)n(Cc2ccccc2)c(=O)n2cc(C(=O)NCc3ccc4nsnc4c3)sc12	MMP-2FL (full length Gelatinase A) (Homo sapiens, UniProt P08253)	> 30 µM
Cc1c(=O)n(Cc2ccc3cc(F)ccc3n2)c(=O)n2cc(C(=O)NCc3ccc(F)cc3)sc12	MMP-2FL (full length Gelatinase A) (Homo sapiens, UniProt P08253)	> 30 µM
Cc1c(=O)n(Cc2ccc(C#N)cc2)c(=O)n2cc(C(=O)NCc3ccc(F)cc3)sc12	MMP-2FL (full length Gelatinase A) (Homo sapiens, UniProt P08253)	> 30 µM
COc1ccc(CNC(=O)c2cn3c(=O)n(Cc4ccccc4)c(=O)c(C)c3s2)cc1	MMP-2FL (full length Gelatinase A) (Homo sapiens, UniProt P08253)	> 30 µM
Cc1c(=O)n(Cc2ccc(-c3nn[nH]n3)cc2)c(=O)n2cc(C(=O)NCc3ccc(F)cc3)sc12	MMP-2FL (full length Gelatinase A) (Homo sapiens, UniProt P08253)	> 100 µM
O=C(OCc1ccccc1)C1C[S+]([O-])c2cc(=O)n(Cc3ccccc3)c(=O)n21 (stereo not shown)	MMP-2FL (full length Gelatinase A) (Homo sapiens, UniProt P08253)	> 100 µM
O=C(NCc1ccccc1)c1cn2c(=O)n(Cc3ccc(Cl)c(Cl)c3)c(=O)cc2s1	MMP-2FL (full length Gelatinase A) (Homo sapiens, UniProt P08253)	> 100 µM

Reported IC50 for Cc1c(=O)n(Cc2ccccc2)c(=O)n2cc(C(=O)NCc3ccc(F)cc3)sc12 : what is it?
> 30 µM

And what about the compound O=C(Nc1ccc(-c2ccccc2)cc1)c1cn2c(=O)n(Cc3ccccc3)c(=O)cc2s1 ?
> 30 µM

And what about the compound Cc1c(=O)n(Cc2ccccc2)c(=O)n2cc(C(=O)NCc3ccc(Cl)c(Cl)c3)sc12 ?
> 30 µM
